test: protein stability index of a GFP-peptide fusion (yeast GPS) (PSI 1-4); higher = more stable; sorted into four equal gates, so the index is relative within each strain; details: ubr1∆
MEASURED QUANTITY: protein stability index

>>> reported_result("NDIHLRFMRFLADRDEF [ECM29]")
2.5
>>> reported_result("VKFLVYQGVYSMGSILL [YML031W/NDC1]")
1.7
>>> reported_result("VEESGEHVILGNGELYM [SNU114]")
3.13
>>> reported_result("YACISSRPGQSGRCDGY [RPS8A]")
3.28

----------
assay: protein stability index of a GFP-peptide fusion (yeast GPS) (PSI 1-4); higher = more stable; sorted into four equal gates, so the index is relative within each strain; conditions: doa10∆
Listing of recorded protein stability index by entry.
MEASURED QUANTITY: protein stability index

>>> reported_result("KRLNFSFVGDYMHDTEL [GRR1]")
2.55
>>> reported_result("RDMTYSAPIYVDIEYTR [RET1]")
2.17
>>> reported_result("SNDRVNPLIELTPIQKK [ITC1]")
2.92
>>> reported_result("SYQKAWDLLQSGSQNIS [RPN12]")
1.18
>>> reported_result("AGMTTIVRDLDRPGSKF [RPL3]")
2.39
>>> reported_result("IFIATQLEKKIRFVCLS [BRR2]")
2.17
>>> reported_result("KDIFRYMQRTVEEAHDF [RPB2]")
2.24
>>> reported_result("VRIDLGTIDKLQLELTI [RPO31]")
1.99
>>> reported_result("TSASNTSMNGVHNTVAA [SNF5]")
2.66
>>> reported_result("VALPPGSNYNPYFPGGS [CYT1]")
2.32
>>> reported_result("IKTVVLVPQLGHVGSVQ [PRP8]")
2.42
>>> reported_result("LVAKLKKVKSASKKSGG [SMC4]")
2.4
>>> reported_result("KVDSPDDPFMTKSGATT [GAL11]")
2.51

----------
experiment: protein stability index of a GFP-peptide fusion (yeast GPS) (PSI 1-4); higher = more stable; sorted into four equal gates, so the index is relative within each strain; settings: san1∆
Listing of recorded protein stability index by entry.
MEASURED QUANTITY: protein stability index

>>> reported_result("PIFSFGKQEENGDEGDD [YOR098C/NUP1]")
3.55
>>> reported_result("SGITDPYEMYKYVHVSE [FAS2]")
2.48
>>> reported_result("KRLLGTAFKSSPFGGSS [RPS23A]")
2.33
>>> reported_result("QMTQIMDIMEDFLRYIN [SNF2]")
1.4
>>> reported_result("QKIMILQRTILNRIINH [RGR1]")
2
>>> reported_result("KLQGLYENIPIYATFLN [YDL116W/NUP84]")
1.22
>>> reported_result("NNGNNSTSIQYHGISKN [POP6]")
2.65
>>> reported_result("TKGDSTPVQPDLSVTPQ [YAR002W/NUP60]")
2.98
>>> reported_result("VLKTLEYKLATYGVPGS [NUT1]")
3.27

----------
assay: protein stability index of a GFP-peptide fusion (yeast GPS) (PSI 1-4); higher = more stable; sorted into four equal gates, so the index is relative within each strain; settings: pdr5∆
MEASURED QUANTITY: protein stability index

>>> reported_result("AITHMIDALGTEFSKND [SCL1]")
2.54
>>> reported_result("QSEHLEAVVDQDVQRTC [FAS1]")
3.36
>>> reported_result("MAFRKSNVYLSLVNSYI [COB]")
2.08
>>> reported_result("QTSRGLFGNNNTNNINN [YGL172W/NUP49]")
3.04
>>> reported_result("AQNVPMNIIQQQQQQNT [GAL11]")
2.6
>>> reported_result("ELLSSLEGKGSLEEIIA [RPP2B]")
2.24
>>> reported_result("IRINDEPILGQITLTFI [YML103C/NUP188]")
2.64
>>> reported_result("ITVRYWLNGKMDSKGKI [RGR1]")
3.51
>>> reported_result("KKRNMPLQSIPEIGNRK [SWI1]")
2.67
>>> reported_result("RRVPKELAVENPLAKTM [SEC65]")
2.93
>>> reported_result("RAGQRGYHSRTSINHKI [RPL3]")
3.23
>>> reported_result("KMLSCAGADRLQQGMRG [RPL10]")
3.28
>>> reported_result("LTEAVEDGPRPFKVFLD [RPL5]")
3.11
>>> reported_result("MGAYKYLEELQRKKQSD [RPL15A]")
2.75
>>> reported_result("FLPKLNSVRNSLLLAHF [NUT1]")
1.5
>>> reported_result("FSVRTKDSNKDVVVEGL [RPL10]")
2.32

----------
experiment: protein stability index of a GFP-peptide fusion (yeast GPS) (PSI 1-4); higher = more stable; sorted into four equal gates, so the index is relative within each strain; conditions: san1∆
Listing of recorded protein stability index by entry.
MEASURED QUANTITY: protein stability index

>>> reported_result("SKEGQYKAKIKELENNL [YIL149C/MLP2]")
2.18
>>> reported_result("HVTQEDFELAVGKVMNK [RPT6]")
2.62
>>> reported_result("KKEANLFPEQQTKEIKT [RPL6B]")
2.56
>>> reported_result("NKVSYYGNPTSKESWRY [RTT102]")
2.84
>>> reported_result("LADDLITKMLASDESLL [RPN2]")
1.86
>>> reported_result("PIPSSETKADGILLETI [RRP6]")
2.12
>>> reported_result("FIERNFTPQEIEYCSAQ [FAS2]")
2.72
>>> reported_result("VVGQNQLIDQFEWDISN [SNF5]")
2.9
>>> reported_result("GSIRVHKSGKLSVKIGN [RPC53]")
1.75
>>> reported_result("VLSSVREPDFWVIRKQR [MED6]")
3.54
>>> reported_result("VNTMGTGGQTIDNGTGR [MED6]")
3.19
>>> reported_result("KALQSIGQLIGEVMKEL [RPT4]")
3.39
>>> reported_result("HGLILELQKIWQIEEAG [SRB5]")
3.19
>>> reported_result("PEKEASSATIVLCLTRS [YCG1]")
2.1
>>> reported_result("TIRTRKVISNPLLARKQ [RPS24A]")
2.35
>>> reported_result("FNDFSNIKTSEWDLYPQ [REC8]")
2.78
>>> reported_result("PLPVETPRDRRKSVFAP [SSN2]")
2.99
>>> reported_result("ATFLLTDIKDTLTKISM [MCD1]")
2.88
>>> reported_result("VTNALDNIDEKVVKAIR [NUT1]")
3.07
>>> reported_result("KNNNNANNNGSNLQRAQ [GAL11]")
3.28

----------
Listing of recorded protein stability index by entry.
assay: protein stability index of a GFP-peptide fusion (yeast GPS) (PSI 1-4); higher = more stable; sorted into four equal gates, so the index is relative within each strain; conditions: doa10∆
MEASURED QUANTITY: protein stability index

>>> reported_result("EDNKYAIAGNSTTNSDV [RGR1]")
2.89
>>> reported_result("MSGRGKGGKGLGKGGAK [HHF1]")
3.69
>>> reported_result("PPQLANQQQPPQDILSK [SNF11]")
2.26
>>> reported_result("HKQISAEDLTIAAKTHI [SIN4]")
3.03
>>> reported_result("KAPLEDDDKKPDDDKIV [RPT1]")
2.67
>>> reported_result("DDFTDAIQFVKENELLF [YCS4]")
2.1
>>> reported_result("ISNVIKPNQTIMVLDAS [SRP54]")
2.48
>>> reported_result("TTQIDLFRIFSMSEEFK [BRR2]")
2.4
>>> reported_result("LIAVYYSFGGLLMRLEG [RPB8]")
2.69
>>> reported_result("KNDLFVIWSEDNDEKLI [RPO21]")
2.83

----------
assay: protein stability index of a GFP-peptide fusion (yeast GPS) (PSI 1-4); higher = more stable; sorted into four equal gates, so the index is relative within each strain; settings: ubr1∆
Entry flag: MET if protein stability index reaches 3; NOT MET if it does not.

>>> assigned_class("TPYNIDRLTQLVRNGPN [RPO21]")
"MET"
>>> assigned_class("RKLAVERAGHLLCDKAQ [PRE5]")
"MET"
>>> assigned_class("ENHNGQSISNENDVKPI [SWI3]")
"NOT MET"
>>> assigned_class("APLNLEIPAYEFDGDKV [RIP1]")
"NOT MET"
>>> assigned_class("LYTLAQETEGTNRHTLA [SIR3]")
"NOT MET"
>>> assigned_class("NYGSSLQWHAMIELICS [AAR2]")
"NOT MET"
>>> assigned_class("NGNKDSSFNFNKNLPFV [SWI1]")
"MET"
>>> assigned_class("VGRFSTISSADFIQNVG [ECM29]")
"NOT MET"
